Values from PubChem BioAssay (NCI)

- Tested on: MCF7 breast
- assayName: NCI-60 one-dose screen, 48 h
- conditionInfo: 10 µM unless noted
Compounds without any hit were thinned out: in the full panel of roughly 83,000, 20% have a hit. The source made the active and inactive calls. The calls were made as follows: active = growth percent below 10; inactive = the rest.
Respond with a class label; see 1 for active, -1 for inactive

Would you please look over these solved cases?
- compound: "O=[N+]([O-])c1c(Br)sc(Br)c1[N+](=O)[O-]"
  assayTarget: "MCF7 breast"
  classification: -1
- compound: "COc1ccc(/C=C\\c2cc(OC)c(OC)c(OC)c2)c(NS(=O)(=O)c2ccc(F)cc2)c1O"
  assayTarget: "MCF7 breast"
  classification: 1
- compound: "COC(=O)[C@@]1(C)CC[C@]2(C)CC[C@]3(C)C4=CC(=O)c5c(cc(O)c(O)c5C)[C@]4(C)CC[C@@]3(C)[C@@H]2C1"
  assayTarget: "MCF7 breast"
  classification: -1
- compound: "COc1ccc2c(c1)c(-c1nc(-c3cn(C)c4ncccc34)cs1)cn2CCN1CCOCC1"
  assayTarget: "MCF7 breast"
  classification: -1
- compound: "Clc1ccc(CO/N=C(\\Cn2ccnc2)c2ccc(Cl)cc2Cl)c(Cl)c1"
  assayTarget: "MCF7 breast"
  classification: 1
- compound: "COc1ccc(C(O)(C(=O)O)c2ccc(OC)cc2)cc1"
  assayTarget: "MCF7 breast"
  classification: -1
- compound: "C[N+]12CN3CN(CN(C3)C1)C2"
  assayTarget: "MCF7 breast"
  classification: -1
- compound: "CCOP(=O)(NC[C@H]1O[C@](O)(CO)[C@@H](O)[C@@H]1O)OCC"
  assayTarget: "MCF7 breast"
  classification: -1
- compound: "COP(=S)(N1CC1)N1CC1"
  assayTarget: "MCF7 breast"
  classification: -1
- compound: "COc1ccc(/C=C\\c2cc(OC)c(OC)c(OC)c2)c(NS(=O)(=O)c2ccc(C)cc2)c1O"
  assayTarget: "MCF7 breast"
  classification: -1

Test call for this compound, please: "COC(=O)[C@H](Cc1ccccc1)NC(=O)c1csc([C@@H](C[C@H](C(C)C)N(C)C(=O)[C@@H](NC(=O)[C@H]2CCCN2C)C2CC2)OC(C)=O)n1"
-1

Quick one: "ClCCN(CCCl)c1ccc(OCc2ccccc2)cc1"
-1

Quick one: "CCOc1ccc(/C=C/[N+](=O)[O-])cc1"
-1

Quick one: CN1CC(=O)N(O)C1(C)c1cccnc1 (centres undefined)
-1

Quick one: "COC(=O)[C@@H](C)C[C@H](Cc1ccccc1)NC(=O)c1csc(CC[C@H](C(C)C)N(C)C(=O)[C@@H](NC(=O)[C@H]2CCCCN2C)C(C)C)n1"
-1

Quick one: "CC1=C(CCCOC(=O)CN)C2=C(C)C3(CC3)[C@@](C)(O)C(=O)C2=C1"
-1

Quick one: "C=C1[C@@H](C)[C@H]2[C@H](Cc3ccccc3)NC(=O)[C@]23[C@@H](O)/C=C/[C@@](C)(O)C(=O)[C@@H](C)C/C=C/[C@H]3[C@@H]1O"
-1

Quick one: "COC(=O)CCC1=C(C)c2cc3[n-]c(cc4nc(cc5[n-]c(cc1n2)c(CCC(=O)OC)c5C)C=C4C)cc3C.[Cd+2]"
-1

----------
- Tested on: A549/ATCC NSCLC
- assayName: NCI-60 one-dose screen, 48 h
- conditionInfo: 10 µM unless noted
This is part of a sample that, as a whole, favours compounds with a hit. Of some 83,000 tested, about 20% had one in any assay. The source made the active and inactive calls. The calls were made as follows: active = growth percent below 10; inactive = the rest.
Respond with a class label; see active, inactive

Would you please look over these solved cases?
- molecule: "CC1=C(O)[C@@](C)(CCCCC[C@H](C)CCCCc2ccc(O)cc2)OOC1=O"
  classification: "inactive"
- molecule: "COc1ccc2c(c1)c(-c1nc(-c3cn(C)c4ncccc34)cs1)cn2CCCCN1CCCCC1"
  classification: "active"

Test call for this molecule, please: "Clc1cccc(NCOOC2(OOCNc3cccc(Cl)c3)CCCCCC2)c1"
inactive

Quick one: "CCCCCCCCCCCCCCCCCCOc1ccccc1COP(=O)(O)OOCC[N+](C)(C)C"
inactive

Quick one: "O=C1NC(=O)C(=Cc2cccn2CCCCCn2c3ccccc3c(=O)c3ccccc32)C(=O)N1"
inactive

Quick one: "c1cnc2[nH]cc(-c3csc(-c4cn(CCCCN5CCOCC5)c5ccccc45)n3)c2c1"
inactive

Quick one: "COC(=O)[C@@H](C)C[C@H](Cc1ccccc1)NC(=O)c1csc([C@@H](C[C@H](C(C)C)N(C)C(=O)[C@@H](NC(=O)CN(C)C)C2CC2)OC(C)=O)n1"
inactive
